assay: GAPDH versus PEG-3 reporter suppression – cell-based, luminescence, counter-screen for PEG-3 promoter inhibitor project, SAR follow-up (AID 651551)
run_conditions: HeLa PEG-Prom / GAPDH luciferase reporter, 6 or 24 h; GAPDH; mean of runs, 24 h
Calls of active or inactive are those of the source.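 The calls were made as follows: active = compounds blocking the Peg3 reporter with IC50 up to 10 µM at 6 or 24 hours, yet inert on a control reporter; inactive = the rest.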
endpoint_name: IC50

{"columns": ["smiles_notation", "endpoint_name", "data_value"],
 "data": [
  ["COc1ccccc1Nc1nc(-c2sc(NC(=O)c3ccco3)nc2C)cs1", "IC50", "4.17 µM"],
  ["Cc1ccc(Cl)cc1Nc1nc(-c2sc(NC(=O)c3ccco3)nc2C)cs1", "IC50", "7.63 µM"],
  ["COc1ccc(-n2nc(C(=O)NCC(=O)Nc3ccc(OC)c(OC)c3)c3ccccc3c2=O)cc1", "IC50", "inactive"],
  ["Cc1nc(NC(=O)c2ccccc2)sc1-c1csc(Nc2ccccc2)n1", "IC50", "inactive"],
  ["Cc1cc(NC(=O)c2ccccc2)n(-c2nc3ccccc3[nH]2)n1", "IC50", "> 99 µM (inactive)"],
  ["O=C(Nc1nccs1)c1nn(-c2ccccc2)c(=O)c2ccccc12", "IC50", "8.39 µM"],
  ["Cc1cc(NC(=O)c2ccccc2C)n(-c2nc3ccccc3[nH]2)n1", "IC50", "inactive"],
  ["O=C(Nc1nc2ccccc2s1)c1nn(-c2ccccc2)c(=O)c2ccccc12", "IC50", "inactive"],
  ["Cc1nc(NC(=O)c2ccccc2)sc1-c1csc(Nc2cccc(Cl)c2C)n1", "IC50", "inactive"],
  ["CCCn1nc(C(=O)Nc2nc(-c3ccccn3)cs2)c2ccccc2c1=O", "IC50", "7.06 µM"],
  ["COc1ccc(Cl)cc1Nc1nc(-c2sc(NC(=O)c3ccccc3)nc2C)cs1", "IC50", "9.9 µM"],
  ["Cc1cc(NC(=O)c2ccccc2C(F)(F)F)n(-c2nc3ccccc3[nH]2)n1", "IC50", "8.73 µM"],
  ["CCn1cc(C(=O)NCc2ccco2)c(=O)c2cc(S(=O)(=O)N3CCCC3)ccc21", "IC50", "inactive"]
]}

====

assay: GAPDH versus PEG-3 reporter suppression – cell-based, luminescence, counter-screen for PEG-3 promoter inhibitor project, SAR follow-up (AID 651551)
run_conditions: HeLa PEG-Prom / GAPDH luciferase reporter, 6 or 24 h; GAPDH; mean of runs, 24 h
Calls of active or inactive are those of the source.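 Rule for the calls: active = compounds blocking the Peg3 reporter with IC50 up to 10 µM at 6 or 24 hours, yet inert on a control reporter; inactive = the rest.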
Outcome codes: T (active), F (inactive)

{"columns": ["smiles_notation", "category"],
 "data": [
  ["O=C(Nc1nc(-c2ccccc2)cs1)c1nn(-c2ccccc2)c(=O)c2ccccc12", "F"],
  ["CCn1nc(C(=O)Nc2nc(-c3ccccn3)cs2)c2ccccc2c1=O", "T"],
  ["COc1ccc(-n2nc(C(=O)NCC(=O)Nc3cccc(OC)c3)c3ccccc3c2=O)cc1", "F"],
  ["COCCCNC(=O)c1ccc(Cn2c(=O)c3ccccc3n(Cc3ccccc3C#N)c2=O)cc1", "T"],
  ["CCCn1nc(C(=O)Nc2nc3ccccc3s2)c2ccccc2c1=O", "F"]
]}

====

study_target: PEG-3 (UniProt Q6IN02)
assay: GAPDH versus PEG-3 reporter suppression – cell-based, luminescence, counter-screen for PEG-3 promoter inhibitor project, SAR follow-up (AID 651551)
run_conditions: HeLa PEG-Prom / GAPDH luciferase reporter, 6 or 24 h, mean of runs, 24 h
The source made the active and inactive calls.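 The calls were made as follows: active = compounds blocking the Peg3 reporter with IC50 up to 10 µM at 6 or 24 hours, yet inert on a control reporter; inactive = the rest.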
Outcome codes: 1 (yes) = active, 0 (no) = inactive

{"columns": ["smiles_notation", "category"],
 "data": [
  ["Cc1cc(NC(=O)c2ccccc2)n(-c2nc3ccccc3n2C)n1", "0 (no)"],
  ["Cc1cc(NC(=O)c2ccccc2C(F)(F)F)n(-c2nc3ccccc3[nH]2)n1", "0 (no)"],
  ["COc1ccc(Cl)cc1Nc1nc(-c2sc(NC(=O)c3ccccc3)nc2C)cs1", "0 (no)"],
  ["COc1ccc(-n2nc(C(=O)NCC(=O)Nc3cc(OC)c(OC)c(OC)c3)c3ccccc3c2=O)cc1OC", "0 (no)"],
  ["Cc1cc(NC(=O)c2ccccc2)n(-c2nc3ccccc3[nH]2)n1", "0 (no)"],
  ["CCCn1nc(C(=O)Nc2nc(-c3ccncc3)cs2)c2ccccc2c1=O", "0 (no)"],
  ["O=C(Nc1nccs1)c1nn(-c2ccccc2)c(=O)c2ccccc12", "0 (no)"],
  ["Cc1nc(NC(=O)c2ccccc2)sc1-c1csc(Nc2ccccc2Cl)n1", "0 (no)"],
  ["COc1ccccc1Nc1nc(-c2sc(NC(=O)c3ccco3)nc2C)cs1", "0 (no)"],
  ["COCCCNC(=O)c1ccc(Cn2c(=O)c3ccccc3n(Cc3ccccc3C#N)c2=O)cc1", "1 (yes)"]
]}
